Recorded values, source ChEMBL document CHEMBL4219124.

- target_of_assay: CYP1A2 (Homo sapiens)
- Sequence (P05177 whole entry): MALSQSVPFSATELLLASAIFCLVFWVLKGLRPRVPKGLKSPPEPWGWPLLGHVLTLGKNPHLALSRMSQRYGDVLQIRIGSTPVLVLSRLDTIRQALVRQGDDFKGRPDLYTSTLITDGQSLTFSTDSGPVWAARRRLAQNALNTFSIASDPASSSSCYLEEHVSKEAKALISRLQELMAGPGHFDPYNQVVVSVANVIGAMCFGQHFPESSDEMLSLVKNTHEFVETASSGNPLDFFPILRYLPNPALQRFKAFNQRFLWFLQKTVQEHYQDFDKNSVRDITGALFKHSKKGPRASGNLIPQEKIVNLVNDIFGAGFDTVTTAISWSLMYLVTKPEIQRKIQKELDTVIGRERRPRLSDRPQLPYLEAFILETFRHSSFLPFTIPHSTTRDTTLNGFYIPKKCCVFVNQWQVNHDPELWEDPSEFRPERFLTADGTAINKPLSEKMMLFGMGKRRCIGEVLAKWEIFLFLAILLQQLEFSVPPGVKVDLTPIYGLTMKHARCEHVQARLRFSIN
- method_description: Inhibition of CYP1A2 in human liver microsomes at 10 uM after 20 mins in presence of NADPH by LC-MS/MS analysis
- Assay type: ADME
property: inhibition at 20 min, 10 µM

In [3]: df
Out[3]:
                                   molecule        target_of_assay                     property  meas_value
0  CC1(C)Cc2c(c(C(=O)Nc3cc(C4CC4)ccc3F)cc3nc(Nc4c(Cl)cccc4Cl)[nH]c23)O1  CYP1A2 (Homo sapiens)  inhibition at 20 min, 10 µM         14%
1  Cc1cccc(Cl)c1Nc1nc2cc(C(=O)Nc3cc(C4CC4)ccc3F)c3c(c2[nH]1)CC(C)(C)O3  CYP1A2 (Homo sapiens)  inhibition at 20 min, 10 µM         14%
2  CC1(C)Cc2c(c(C(=O)Nc3ccccc3C(F)(F)F)cc3nc(Nc4c(Cl)cccc4Cl)[nH]c23)O1  CYP1A2 (Homo sapiens)  inhibition at 20 min, 10 µM         18%
3  CC1(C)Cc2c(c(C(=O)Nc3ccccc3C(F)(F)F)cc3nc(Nc4c(F)cccc4Cl)[nH]c23)O1  CYP1A2 (Homo sapiens)  inhibition at 20 min, 10 µM         17%
